- tgt: T1, human GIP receptor (human, UniProt P48546 22-466)
- T1 sequence (looked up): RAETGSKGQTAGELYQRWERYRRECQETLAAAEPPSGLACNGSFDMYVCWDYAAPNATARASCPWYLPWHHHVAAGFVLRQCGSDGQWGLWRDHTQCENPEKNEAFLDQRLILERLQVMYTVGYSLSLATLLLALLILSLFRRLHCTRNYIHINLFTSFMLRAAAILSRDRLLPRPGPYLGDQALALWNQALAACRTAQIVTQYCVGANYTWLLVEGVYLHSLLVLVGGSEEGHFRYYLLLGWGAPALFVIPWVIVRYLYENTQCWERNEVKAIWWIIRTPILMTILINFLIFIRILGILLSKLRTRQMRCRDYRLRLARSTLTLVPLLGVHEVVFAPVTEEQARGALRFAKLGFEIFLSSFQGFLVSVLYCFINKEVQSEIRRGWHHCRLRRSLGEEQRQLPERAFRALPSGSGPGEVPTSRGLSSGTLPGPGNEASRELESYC
- assay-name: cell-based or functional assay
Positions of bridges follow the written chain, without caps; N, C: chain ends. Non-standard residues stand in square brackets, D forms with d. No end group written: not given here. *: point of attachment. Acetyl(2-(4-imidazolyl)) = O=C(Cc1c[nH]cn1)*; Aib = CC(C)(N)C(=O)O
In vitro Activity Compared to Native Peptide (%) vs. GIP vs 1%: at or above is true (1), below is false (0).

Query block: Item Y[Aib]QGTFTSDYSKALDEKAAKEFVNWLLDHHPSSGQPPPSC (bridge 16-20) [triple agonist of SEQ ID NO: 98] with In vitro Activity Compared to Native Peptide (%) vs. GIP of 1% or above?
Result block: true (1)

Query block: Item H[Aib]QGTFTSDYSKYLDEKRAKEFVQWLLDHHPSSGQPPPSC (bridge 16-20) [triple agonist of SEQ ID NO: 50] with In vitro Activity Compared to Native Peptide (%) vs. GIP of 1% or above?
Result block: true (1)

Query block: Item H[Aib]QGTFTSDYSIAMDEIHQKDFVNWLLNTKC (bridge 16-20) [triple agonist of SEQ ID NO: 35] with In vitro Activity Compared to Native Peptide (%) vs. GIP of 1% or above?
Result block: true (1)

Query block: Item HGQGTFTSDCSKYLDGQRAQEFVAWLLAGGPSSGAPPPS [triple agonist of SEQ ID NO: 47] with In vitro Activity Compared to Native Peptide (%) vs. GIP of 1% or above?
Result block: false (0)

Query block: Item H[Aib]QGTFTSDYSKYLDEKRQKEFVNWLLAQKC (bridge 16-20) [triple agonist of SEQ ID NO: 34] with In vitro Activity Compared to Native Peptide (%) vs. GIP of 1% or above?
Result block: false (0)

Query block: Item H[Aib]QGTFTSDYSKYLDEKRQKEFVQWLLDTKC (bridge 16-20) [triple agonist of SEQ ID NO: 78] with In vitro Activity Compared to Native Peptide (%) vs. GIP of 1% or above?
Result block: false (0)

Query block: Item Y[Aib]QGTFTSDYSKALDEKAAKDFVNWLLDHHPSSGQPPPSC (bridge 16-20) [triple agonist of SEQ ID NO: 99] with In vitro Activity Compared to Native Peptide (%) vs. GIP of 1% or above?
Result block: true (1)

Query block: Item Y[Aib]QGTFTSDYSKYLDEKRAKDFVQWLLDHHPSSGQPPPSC (bridge 16-20) [triple agonist of SEQ ID NO: 76] with In vitro Activity Compared to Native Peptide (%) vs. GIP of 1% or above?
Result block: true (1)

Query block: Item [Acetyl(2-(4-imidazolyl))][Aib]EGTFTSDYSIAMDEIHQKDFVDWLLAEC (bridge 16-20) [triple agonist of SEQ ID NO: 84] with In vitro Activity Compared to Native Peptide (%) vs. GIP of 1% or above?
Result block: false (0)

Query block: Item [Acetyl(2-(4-imidazolyl))][Aib]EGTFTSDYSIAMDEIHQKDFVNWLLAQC (bridge 16-20) [triple agonist of SEQ ID NO: 83] with In vitro Activity Compared to Native Peptide (%) vs. GIP of 1% or above?
Result block: false (0)

Query block: Item H[Aib]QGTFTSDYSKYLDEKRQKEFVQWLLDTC (bridge 16-20) [triple agonist of SEQ ID NO: 52] with In vitro Activity Compared to Native Peptide (%) vs. GIP of 1% or above?
Result block: false (0)

Recorded values, source patent US20230118307A1.
